- STUDY_TARGET: Glycine receptor subunit alpha-1 (Homo sapiens)
- Sequence (P23415 whole entry): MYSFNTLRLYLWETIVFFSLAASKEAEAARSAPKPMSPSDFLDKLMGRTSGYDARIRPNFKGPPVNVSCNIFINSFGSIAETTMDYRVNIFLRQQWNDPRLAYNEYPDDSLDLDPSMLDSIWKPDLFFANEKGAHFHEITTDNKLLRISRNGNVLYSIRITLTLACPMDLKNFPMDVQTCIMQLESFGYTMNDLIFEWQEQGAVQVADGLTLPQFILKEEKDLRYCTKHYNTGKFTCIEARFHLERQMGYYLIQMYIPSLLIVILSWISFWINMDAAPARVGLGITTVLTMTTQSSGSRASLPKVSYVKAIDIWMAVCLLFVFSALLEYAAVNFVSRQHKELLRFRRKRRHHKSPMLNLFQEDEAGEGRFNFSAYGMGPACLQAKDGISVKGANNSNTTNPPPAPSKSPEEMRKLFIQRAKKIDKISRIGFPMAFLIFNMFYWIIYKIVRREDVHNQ
- TEST_SUMMARY: Activity at human alpha-1GlyR expressed in HEK293 cells assessed as inhibition of 30 uM glycine-induced current by whole-cell patch clamp experiment
- Assay type: cell-based
READOUT_LABEL: pIC50
Formally, pIC50 is defined as -log10 of the concentration c, with c in mol/L.

QUERY: Which pIC50 is listed for C[C@@H]1C(=O)O[C@H]2[C@H](O)[C@]34[C@@H]5OC(=O)[C@]3(O[C@@H]3OC(=O)[C@H](O)[C@@]34[C@H](C(C)(C)C)[C@H]5O)[C@@]12O [GINKGOLIDE C] ?
RESULT: 5.62

====

Exercise: state measured pIC50 for each of the compounds provided.
- STUDY_TARGET: Glycine receptor subunit alpha-2 (Homo sapiens)
- Sequence (P23416 whole entry): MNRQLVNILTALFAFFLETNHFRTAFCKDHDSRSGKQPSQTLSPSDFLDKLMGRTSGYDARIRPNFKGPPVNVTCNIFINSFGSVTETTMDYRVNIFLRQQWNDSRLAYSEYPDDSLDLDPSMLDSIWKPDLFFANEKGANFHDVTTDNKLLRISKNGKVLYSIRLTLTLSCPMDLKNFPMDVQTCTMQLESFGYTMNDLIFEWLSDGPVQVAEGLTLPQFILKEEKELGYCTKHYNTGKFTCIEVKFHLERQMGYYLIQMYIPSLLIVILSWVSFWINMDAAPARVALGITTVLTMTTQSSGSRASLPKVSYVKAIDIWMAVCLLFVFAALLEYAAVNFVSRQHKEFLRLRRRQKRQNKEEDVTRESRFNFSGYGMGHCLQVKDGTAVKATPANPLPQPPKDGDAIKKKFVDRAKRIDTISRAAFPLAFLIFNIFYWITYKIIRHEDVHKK
- TEST_SUMMARY: Activity at human alpha-2GlyR expressed in HEK293 cells by FMP assay
Formally, pIC50 is defined as -log10 of the concentration c, with c in mol/L.

QUERY: # value lookup — system Glycine receptor subunit alpha-2 (Homo sapiens), readout pIC50, item C[C@@H]1C(=O)O[C@H]2C[C@@]34[C@H]5C[C@@H](C(C)(C)C)[C@]36[C@@H](OC(=O)[C@@H]6O)O[C@@]4(C(=O)O5)[C@]21O [GINKGOLIDE A]
RESULT: 5.68

QUERY: # value lookup — system Glycine receptor subunit alpha-2 (Homo sapiens), readout pIC50, item C[C@@H]1C(=O)O[C@@H]2[C@H]1[C@@]13OC4OC(=O)[C@H](O)C45[C@H](C(C)(C)C)[C@@H](O)C(OC1=O)[C@]53[C@H]2O (stereo not given in full) [GINKGOLIDE M]
RESULT: 5.89

QUERY: # value lookup — system Glycine receptor subunit alpha-2 (Homo sapiens), readout pIC50, item C[C@@H]1C(=O)O[C@H]2[C@H](O)[C@@]34[C@H]5C[C@@H](C(C)(C)C)[C@]36[C@@H](OC(=O)[C@@H]6O)O[C@@]4(C(=O)O5)[C@@]12O [GINKOLIDE B]
RESULT: 5.43

QUERY: # value lookup — system Glycine receptor subunit alpha-2 (Homo sapiens), readout pIC50, item C[C@@H]1C(=O)O[C@H]2[C@H](O)[C@]34[C@@H]5C(=O)O[C@@]3(O[C@@H]3OC(=O)[C@H](O)[C@@]34[C@H](C(C)(C)C)[C@@H]5F)[C@@]12O
RESULT: 5.34

QUERY: # value lookup — system Glycine receptor subunit alpha-2 (Homo sapiens), readout pIC50, item C[C@@H]1C(=O)O[C@H]2[C@H](O)[C@]34[C@@H]5OC(=O)[C@]3(O[C@@H]3OC(=O)[C@H](O)[C@@]34[C@H](C(C)(C)C)[C@H]5O)[C@@]12O [GINKGOLIDE C]
RESULT: 5.09
